# Assay notes: Unbound brain to plasma partition coefficient of the compound in wild type Sprague-Dawley rat expressing Abcb1a at 6 mg/kg/day administered through continuous minipump treatment for 3 days
# Type: ADME, organism-based
# Test conditions: other: continuous minipump, read-out: K(p,uu,brain)

{"Smiles notation": "O=C1CCc2ccc(OCCCCN3CCN(c4cccc(Cl)c4Cl)CC3)cc2N1", "Kp uu at 72 h": 0.19}

---

# Assay notes: Total drug level in mdr1a-deficient mouse brain treated with venlafaxine at 12 mg/kg/day administered through continuous minipump treatment for 3 days by UPLC-MS analysis
# Format: ADME, organism-based
# Test conditions: other: continuous minipump, read-out: Drug uptake
Measured concentration at 72 h, listed per entry for reference.
Quantity measured: concentration at 72 h (ng/g)

{"Compound": "CNCC(c1ccc(OC)cc1)C1(O)CCCCC1 (configuration not stated) [N-DESMETHYLVENLAFAXINE]", "Measured": 77}
{"Compound": "CN(C)CC(c1ccc(O)cc1)C1(O)CCCCC1 (configuration not stated) [DESVENLAFAXINE]", "Measured": 40}

---

# Assay notes: Total brain to plasma partition coefficient of the compound in wild type Crl:CF1 mouse expressing Abcb1a mutant at 3 mg/kg/day administered through continuous minipump treatment for 3 days
# Format: ADME, organism-based
# Test conditions: other: continuous minipump
Quantity measured: Kp at 72 h

{"Molecule": "O=C1CCc2ccc(OCCCCN3CCN(c4cccc(Cl)c4Cl)CC3)cc2N1 [ARIPIPRAZOLE]", "Quantity measured": "Kp at 72 h", "Measured": 0.49}

---

# Assay notes: Total plasma concentration in wild type Crl:CF1 mouse expressing Abcb1a mutant at 3 mg/kg/day administered through continuous minipump treatment for 3 days by UPLC-MS analysis
# Format: ADME, organism-based
# Test conditions: other: continuous minipump

{"Smiles notation": "O=C1CCc2ccc(OCCCCN3CCN(c4cccc(Cl)c4Cl)CC3)cc2N1", "Readout unit": "ng/mL", "concentration at 72 h": 51}

---

# Assay notes: Total drug level in wild type Crl:CF1 mouse brain expressing Abcb1a mutant at 3 mg/kg/day administered through continuous minipump treatment for 3 days by UPLC-MS analysis
# Type: ADME, organism-based
# Test conditions: other: continuous minipump, read-out: Drug uptake
Quantity measured: concentration at 72 h (ng/g)

{"Molecule": "O=C1CCc2ccc(OCCCCN3CCN(c4cccc(Cl)c4Cl)CC3)cc2N1 [ARIPIPRAZOLE]", "Readout unit": "ng/g", "Measured": 25}

---

# Assay notes: Total brain to plasma partition coefficient of the compound in wild type Sprague-Dawley rat expressing Abcb1a at 5 mg/kg/day administered through continuous minipump treatment for 3 days
# Test conditions: brain and plasma, other: continuous minipump

{"Compound": "Cc1nc2n(c(=O)c1CCN1CCC(c3noc4cc(F)ccc34)CC1)CCCC2 [RISPERIDONE]", "Kp at 72 h": 0.22}

---

# Assay notes: Unbound brain to plasma partition coefficient of the compound in mdr1a-deficient rat at 9 mg/kg/day administered through continuous minipump treatment for 3 days
# Assay type: ADME, organism-based
# Test conditions: other: continuous minipump, read-out: K(p,uu,brain)

{"Molecule": "COc1ccc(C(CN(C)C)C2(O)CCCCC2)cc1.Cl (stereo unspecified) [VENLAFAXINE HYDROCHLORIDE]", "Kp uu at 72 h": 0.89}

---

# Assay notes: Total brain to plasma partition coefficient of the compound in mdr1a-deficient mouse at 4 mg/kg/day administered through continuous minipump treatment for 3 days
# Test conditions: other: continuous minipump

{"Compound": "Cc1nc2n(c(=O)c1CCN1CCC(c3noc4cc(F)ccc34)CC1)CCCC2 [RISPERIDONE]", "Kp at 72 h": 3.8}

This collection of values is drawn from ChEMBL document CHEMBL3525946.
